tested on: NCI/ADR-RES ovarian; test: NCI tumour cell line growth inhibition, 48 h; in the data active means GI50 below about 0.43 µM; inactive means the rest
Return exactly one item of yes (active), no (inactive)

Completed entries (count: 8):
Cc1cccc(NC(=O)c2sc3nc4c(cc3c2N)CN(Cc2ccccc2)CC4)c1C: yes
CCN1C(=O)N(CC)C2C1NN=c1s/c(=C\c3ccccc3Br)c(=O)n12 (stereo not given): yes
C#CCOc1cccc(Nc2ncnc3c(NC(=O)CCl)cccc23)c1: no
CC(C)(C)CN1CCn2c(nc3c(N)nccc32)S1: no
O=c1[nH]cnc2c(C3NC(CO)C(O)C3O)c[nH]c12 (stereo not given): no
C[C@@H]1O[C@@H](O[C@H]2CC[C@@]3(C)[C@H](CCC4[C@@H]3C(O)C[C@]3(C)[C@@H](c5ccc(=O)oc5)CC[C@]43O)C2)[C@H](O)[C@H](O)[C@H]1O (stereo not given in full): yes
CC(C)(C)c1ccc(C(=O)Nc2sc3c(c2C(N)=O)CCC(=O)C3)cc1: no
O=C(Oc1cccnc1)c1ccsc1Nc1ccnc(C(F)(F)F)c1: no

How was `COc1ccc(C(=O)N2c3ccccc3Sc3ccccc32)c(OC)c1` classified in this test?
yes

How was `COc1ccc(OC)c(Cn2cc3c(c2)-c2oncc2CC3)c1` classified in this test?
no

###

# key: entry, value: GI50
test system: MDA-MB-231 breast; assay: NCI tumour cell line growth inhibition, 48 h

Use the examples below as a reference point.
O=[N+]([O-])c1cc(S(=O)(=O)Oc2ccccc2)ccc1Cl: 3.89 µM
C[CH2][Pb]([CH2]C)([CH2]C)[O]C(=O)c1ccc2ccccc2n1: > 10 µM
Cc1cccc(NC(=O)c2sc3nc4c(cc3c2N)CN(Cc2ccccc2)CC4)c1C: 0.432 µM

Please give the documented GI50 of CN(CCCCCl)P(=O)(OCCS(=O)(=O)CC(NC(=O)CCC(N)C(=O)O)C(=O)NC(C(=O)O)c1ccccc1)OCC1OC(n2cc(F)c(=O)[nH]c2=O)CC1O (stereo not given)
8.96 µM

Please give the documented GI50 of `N#CN1CC[C@H](C(=O)Nc2ncc(-c3ccncc3)s2)C1`
< 0.0266 µM

Please give the documented GI50 of `CC1(C)N=C(N)N=C(N)N1c1ccc(CCCCc2ccc(S(=O)(=O)F)cc2)c(Cl)c1`
1.76 µM

Please give the documented GI50 of COc1ccc2c(c1OC)C(=O)OC2C1c2c(c([N+](=O)[O-])c3c(c2OC)OCO3)CCN1C (stereo not given)
> 100 µM

Please give the documented GI50 of `COc1ccc(OC)c(Cn2cc3c(c2)-c2oncc2CC3)c1`
5.02 µM

Please give the documented GI50 of `CC(=O)Oc1ccccc1C(=O)/C=C/c1cccc([N+](=O)[O-])c1`
3.48 µM

Please give the documented GI50 of `CC(=O)c1c(C(F)(F)F)n([O-])c2ccc(C)cc2[n+]1=O`
1.82 µM

###

tested on: NCI/ADR-RES ovarian; test: NCI tumour cell line growth inhibition, 48 h; in the data active = GI50 below about 0.43 µM; inactive = the rest
Return exactly one item of 1.0 = active, 0.0 = inactive

Completed entries (count: 3):
C[CH2][Pb]([CH2]C)([CH2]C)[O]C(=O)c1ccc2ccccc2n1: 0.0
Cn1cc(-c2nonc2-c2cn(C)c3ccccc23)c2ccccc21: 0.0
CC1=CC(=O)C(O)C2(C)C1CC(O)C13COC4(C)C(OC(=O)C41)C(O)C23 (stereo unspecified): 0.0

How was `COc1ccc(/C=N/NC(=O)Cn2c(-c3ccc(S(C)(=O)=O)cc3)nc3cc(Cl)ccc32)cc1` classified in this test?
0.0

How was `Nc1ccc(-c2nc3ccccc3[nH]2)c2ccccc12` classified in this test?
0.0

How was COc1ccc(C2[C@@H](Cl)C(=O)N2c2cc(OC)c(OC)c(OC)c2)cc1Cl (stereo partly specified) classified in this test?
1.0
